Test system: SF-268 CNS
assay-protocol: NCI tumour cell line growth inhibition, 48 h
measured-endpoint: TGI

NC1CCCCC1N.O=S(=O)([O-])CCCN1CCOCC1.O=S(=O)([O-])CCCN1CCOCC1.[Pt+4]    > 100 µM
CN1CCCCCC(=N\O)/C(=N/O)CCCCC1    > 100 µM
COc1ccc2cc(/C=N\NC(=O)Nc3cccc4ccccc34)ccc2c1    > 100 µM
CCCCc1ccc(-n2c3nc(=O)n(C)c(=O)c-3nc3ccccc32)cc1    34.1 µM

Next molecule, please.
Exercise: Given the entry C=CCN(CC=C)C(=O)c1cc(C)nc2c1c(=O)n(-c1ccccc1)c(=O)n2CC(O)CN1CCN(c2ncccn2)CC1 (stereo not given) , report its measured TGI.
Solution: > 100 µM

---

Tested on: SK-OV-3 ovarian
assay-protocol: NCI tumour cell line growth inhibition, 48 h
measured-endpoint: TGI (µM)
State the answer as a number, implicitly in µM.

Exercise: Need TGI, item COc1ccc(C(c2c[nH]c3ccc(Br)cc23)c2c[nH]c3ccc(Br)cc23)cc1
Solution: 2.58

Exercise: Recorded TGI for CC/C(=C(/CC)c1ccc(O)cc1)c1ccc([O-])cc1.CC/C(=C(/CC)c1ccc(O)cc1)c1ccc([O-])cc1.O=C([CH-]C(=O)c1ccccc1)c1ccccc1.O=C([CH-]C(=O)c1ccccc1)c1ccccc1.[Ti+4] , please?
Solution: 52.2

Exercise: Record request: TGI value, item CN(C)CCCCN1c2ccccc2Sc2cc(N=[N+]=[N-])ccc21
Solution: 5.1

Exercise: Form field: reported TGI of COc1cc(C2C3=C(COC3=O)Oc3cc4c(cc32)OCO4)ccc1OC(C)=O (stereo unspecified)
Solution: 0.909

Exercise: // TGI lookup, key: C/C(=N/O)c1cccc(Nc2nc3ccc(Cl)cc3c3[nH]c4ccccc4c23)c1
Solution: 13.6

Exercise: Look up TGI for this compound: O=C([O][Hg][CH2]C1COCC([CH2][Hg][O]C(=O)c2ccccc2)O1)c1ccccc1 (stereo unspecified)
Solution: 43

Exercise: Recorded TGI for COc1ccc(-c2nc3ncccn3c2/C=C/C(=O)c2cc(OC)c(OC)c(OC)c2)cc1 , please?
Solution: 7.01

---

# TGI values compiled below
Test system: NCI-H460 lung
assay-protocol: NCI tumour cell line growth inhibition, 48 h
// return numeric value only (unit: µM, not printed)

CCC1=CC2Cc3nc4cc(Cl)ccc4c(N)c3C(C1)C2 (stereo not given)    18.5

Exercise: # lookup: TGI of C/C(=N/O)c1cccc(Nc2nc3ccc(Cl)cc3c3[nH]c4ccccc4c23)c1
Solution: 4.29

Exercise: For the compound shown here, COc1cc(NP(=O)(Oc2ccccc2)Oc2ccccc2)ccc1Nc1c2ccccc2nc2c1[nH]c1ccccc12 , give the reported TGI.
Solution: 29.2

Exercise: Item under review: COc1ccc(-c2nc3ncccn3c2/C=C/C(=O)c2cc(OC)c(OC)c(OC)c2)cc1 . Reported TGI?
Solution: 2.74

---

Recorded TGI, one value per entry.
Test system: HCT-116 colon
assay-protocol: NCI tumour cell line growth inhibition, 48 h

Study these solved cases before continuing.
CC(=O)OCC1OC(N2C(C)=C(C(C)=O)C(c3ccco3)C(C#N)=C2S)C(OC(C)=O)C(OC(C)=O)C1OC(C)=O (centres undefined)    > 100 µM
CCCCCC(CO)C(O)(C(F)(F)F)C(F)(F)F (centres undefined)    > 10 µM
NNc1nc2ccccc2s1    > 100 µM
O=C([O][Hg][CH2]C1COCC([CH2][Hg][O]C(=O)c2ccccc2)O1)c1ccccc1 (centres undefined)    2.93 µM
CCOC(=O)C1=C(Nc2ccc(Cl)cc2Cl)OC/C1=N\NS(=O)(=O)c1ccc(C)cc1    > 100 µM
COc1ccc2cc3[n+](cc2c1OC)CCc1cc(O)c(O)cc1-3    > 100 µM
COc1ccc2c(c1)N=C1CSC(c3cccc(Br)c3)N1C2 (centres undefined)    28.6 µM
COc1ccc2c(c1)OC1=C(C(=O)OC1)C2c1cc(OC)c(OC)c(OC)c1 (centres undefined)    > 100 µM

Exercise: Any idea what TGI was measured for N#CC(Nc1ccccc1)c1ccc(C(C#N)Nc2ccccc2)cc1 (centres undefined) ?
Solution: > 100 µM

Exercise: # get_value(readout='TGI', item= Cc1cccc2[s+]snc12 )
Solution: > 100 µM

Exercise: For C#C[C@]1(O)CCC2C3CCc4cc(Oc5nc(F)nc(-c6c7cc8ccccc8cc7c7n6CCS7)n5)ccc4C3CCC21C (some centres undefined) , what is its reported TGI?
Solution: > 100 µM

Exercise: What does the data say about its TGI? Entry: CCCCCCCCC/C=C1\CC(CO)(COC(=O)C2CCCCC2)OC1=O (centres undefined)
Solution: 44.5 µM

Exercise: Would you kindly share the measured TGI for COc1cc(C2C3=C(COC3=O)Oc3cc4c(cc32)OCO4)ccc1OC(C)=O (centres undefined) ?
Solution: > 100 µM

Exercise: Looking for the measured TGI of CC(C)(C)[Si](C)(C)OCC1CCC(n2cnc3c(N)ncnc32)O1 (centres undefined) , can you help?
Solution: > 100 µM

Exercise: Using the record for COc1cc(C(c2cc3c(cc2O)OCO3)N2CCCCC2)cc(OC)c1OC (centres undefined) , report its TGI.
Solution: 30.4 µM

Exercise: TGI lookup needed for COc1cc2cc(C(=O)Nc3cc(N)c4ccccc4c3CCCl)[nH]c2c(OC)c1OC , thanks.
Solution: 5.83 µM

Exercise: Entry CCC(=O)NC(Nc1ccc(O)cc1)(C(F)(F)F)C(F)(F)F has what TGI?
Solution: > 100 µM

Exercise: So what does the record say about TGI for CCCCC(=O)NC1(c2cc3ccccc3s2)CCCCC1 ?
Solution: > 100 µM

Exercise: Which TGI value is on record for O=c1ccnc2c1ccc1[nH]cccc12 ?
Solution: > 100 µM

Exercise: Which value of TGI has been reported for CN(C)CC/C(=N\Nc1ccccc1)c1ccccc1 in the records?
Solution: 34.4 µM
